Form field: IC50 (one value per entry).
test system: class B enzyme CcrA (Bacteroides fragilis)
Sequence (P25910 19-249): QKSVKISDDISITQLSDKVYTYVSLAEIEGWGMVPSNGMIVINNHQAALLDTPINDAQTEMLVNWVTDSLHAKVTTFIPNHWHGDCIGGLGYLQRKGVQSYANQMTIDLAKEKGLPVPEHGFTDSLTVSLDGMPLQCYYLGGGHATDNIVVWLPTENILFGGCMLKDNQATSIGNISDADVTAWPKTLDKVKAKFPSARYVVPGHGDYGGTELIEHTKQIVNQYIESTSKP
method summary: β-Lactamase inhibition, IC50 determination (nitrocefin, spectrophotometric)
Assay type: biochemical
setup conditions: enzyme 1.2 nM; 10 min preincubation at 25° C.; nitrocefin 50 μg/ml; 50 mM PO4, pH 7.0; read-out: IC50 (nM) Class B Ccr
Where a name gives a salt, the structure may show the parent alone.
Provide the reading as a plain figure in nM.

Study these solved cases before continuing.
[[record]]
compound = "O=C([O-])C1=CS[C@@H]2/C(=C\\c3ccc4nc5n(c4c3)CCS5)C(=O)N12.[Na+] [Example 28, sodium salt]"
property = "IC50"
endpoint_value = 110

[[record]]
compound = "Cc1cccc2sc3nc(/C=C4/C(=O)N5C(C(=O)O)=CS[C@H]45)cn3c12 [Example 13]"
property = "IC50"
endpoint_value = 228

[[record]]
compound = "O=C(O)C1=CS[C@@H]2/C(=C\\c3cn4c(n3)-c3ccccc3C4)C(=O)N12 [Example 12, sodium salt]"
property = "IC50"
endpoint_value = 42


Fill in reported IC50 for this entry: CCOc1nc2nc(C=C3C(=O)N4C(C(=O)O)=CSC34)cn2c2c1CCC2 (stereo not shown) [Example 10]
140

----------
Reported melting point values are given for each entry in this list.

In the examples that follow, each entry is paired with its recorded melting point.
[[record]]
molecule = "O=C([O-])C1=CS[C@@H]2/C(=C\\c3ccc4nc5sccn5c4c3)C(=O)N12.[Na+] [Example 30]"
endpoint_value = "> 250 °C"

[[record]]
molecule = "Cc1nc2nc(/C=C3/C(=O)N4C(C(=O)[O-])=CS[C@H]34)nn2c2c1CCCC2.[Na+] [Example 25]"
endpoint_value = "250 °C (dec.)"

[[record]]
molecule = "O=C([O-])C1=CS[C@@H]2/C(=C\\c3nc4ncc5c(n4n3)CCC3(C5)OCCO3)C(=O)N12.[Na+] [Example 24]"
endpoint_value = "> 250 °C (dec.)"


Pending molecule:
Indicate the recorded melting point value for this molecule: O=C([O-])C1=CS[C@@H]2/C(=C\c3cn4c5c(c(OCCOCc6ccccc6)nc4n3)CCC5)C(=O)N12.[Na+] [Example 27]
> 250 °C

----------
# IC50 per entry
test system: class A β-lactamase TEM-1 (Escherichia coli)
Sequence (P62593 24-286 limits assumed): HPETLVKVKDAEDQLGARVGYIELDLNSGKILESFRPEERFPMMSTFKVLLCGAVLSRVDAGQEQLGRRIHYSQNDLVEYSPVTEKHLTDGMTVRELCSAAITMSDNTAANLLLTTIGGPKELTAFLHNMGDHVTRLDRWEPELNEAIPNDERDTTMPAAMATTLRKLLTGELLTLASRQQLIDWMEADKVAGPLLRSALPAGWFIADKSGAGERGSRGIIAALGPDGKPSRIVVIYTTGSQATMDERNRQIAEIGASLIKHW
method summary: β-Lactamase inhibition, IC50 determination (nitrocefin, spectrophotometric)
Format: biochemical, E. Coli
Experimental: IC50 Determination for the Penem Inhibitor β-Lactamase inhibitory activity of the penem inhibitors was determined spectrophotometrically as described by Bush et al., [Bush, K., Macalintal, C., Rasmussen, B. A., Lee, V. and Yang, Y. Antimicrobial Agents and Chemotherapy 1993, 37, 851]. […] Initial rates of hydrolysis were monitored for 5 minutes at 495 nm using a Molecular Devices Spectra Max 250 with kinetic protocol of SoftMax Program. […]
Where a name gives a salt, the structure may show the parent alone.
Please respond with the number in nM and leave the unit unwritten.

# example entries with known answers
[[record]]
compound = "O=C([O-])C1=CS[C@@H]2/C(=C\\c3ccc4nc5sccn5c4c3)C(=O)N12.[Na+] [Example 30, sodium salt]"
property = "IC50"
endpoint_value = 46

[[record]]
compound = "O=C(O)C1=CS[C@@H]2/C(=C\\c3cn4c(n3)-c3ccccc3C4)C(=O)N12 [Example 12, sodium salt]"
property = "IC50"
endpoint_value = 2.6

[[record]]
compound = "COc1nc2nc(/C=C3/C(=O)N4C(C(=O)O)=CS[C@H]34)cn2c2c1CCC2 [Example 26, sodium salt]"
property = "IC50"
endpoint_value = 48

[[record]]
compound = "O=C(O)C1=CS[C@@H]2/C(=C\\c3cn4c(cnc5ccccc54)n3)C(=O)N12 [Example 6, sodium salt]"
property = "IC50"
endpoint_value = 2.5

[[record]]
compound = "O=C(O)C1=CS[C@@H]2/C(=C\\c3cn4c(n3)sc3cc(F)ccc34)C(=O)N12"
property = "IC50"
endpoint_value = 8.1


Let us move to another entry and its IC50.
State measured IC50 of the compound O=C([O-])C1=CS[C@@H]2/C(=C\c3cn4c5c(c(OCCOCc6ccccc6)nc4n3)CCC5)C(=O)N12.[Na+] [Example 27, sodium salt] with class A β-lactamase TEM-1 (Escherichia coli).
12

Hello, the source for this data is patent US7691842B2, in case you need it.
